Data provenance is paper PMC11946255.

compounds and their reported IC50
- System: breast cancer MCF-7 (ER+)
- RUN DESCRIPTION: Antiproliferative activity, SRB assay, MCF-7
- Assay type: cell-based, human
- EXPERIMENTAL SETUP: Homo sapiens, MCF7; 72 h incubation, SRB, mean ± SD
Please state the figure in µg/mL; there is no need to write the unit.

CCCCCc1cc(O)c(C/C=C(\C)CCC=C(C)C)c(O)c1 [CBG, cannabigerol]; 7.43
C=C(C)[C@@H]1CCC(C)=C[C@H]1c1c(O)cc(CCCCC)cc1O [CBD, cannabidiol]; 3.67
CCCCCc1cc(O)c2c(c1)OC(C)(C)c1ccc(C)cc1-2 [CBN, cannabinol]; 5.79

Next:
Suppose we examine the compound CCCCCc1cc(O)c2c(c1)OC(C)(CCC=C(C)C)C=C2 (stereo not shown) [CBC, cannabichromene] ; what IC50 value has been reported?
7.56
